Cited source for all entries: ChEMBL document CHEMBL4715748

Reported deltaT values for the following compounds.
assay: Effect on body temperature in Swiss Albino mouse assessed as rectal body temperature at 20 mg/kg, ip measured after 30 mins by thermometer (reference value: 0.16 to 0.33 degreeC); type: ADME, organism-based; conditions: in vivo, 0.5 h
Form entry: enter the amount, then its unit.

Examples from the recorded data:
O=C(NC1CC2CCC(C1)N2Cc1cccc(Br)c1)c1ccc2ccccc2c1 (stereo not drawn); -0.3 °C
COc1cccc(CN2C3CCC2CC(NC(=O)c2ccc4ccccc4c2)C3)c1 (stereo not drawn); -0.1 °C

# context switch: different compound, same deltaT
Query block: Which measured deltaT value corresponds to COc1ccccc1CN1C2CCC1CC(NC(=O)c1ccc3ccccc3c1)C2 (stereo not drawn) ?
Result block: -0.34 °C

---

assay: Effect on body temperature in Swiss Albino mouse assessed as rectal body temperature at 10 mg/kg, ip measured after 60 mins by thermometer (reference value: 0.33 to 0.61 degreeC); format: ADME, organism-based; conditions: in vivo, 1 h
Reported deltaT values for the following molecules.
The response must be a number in °C with no trailing unit.

Cc1cccc(CN2C3CCC2CC(NC(=O)c2ccc4ccccc4c2)C3)c1 (stereo not given); 0.73
O=C(NC1CC2CCC(C1)N2Cc1cccc(F)c1)c1ccc2ccccc2c1 (stereo not given); 0.53
O=C(NC1CC2CCC(C1)N2Cc1ccc(F)cc1)c1ccc2ccccc2c1 (stereo not given); 0.5
COc1ccccc1CN1C2CCC1CC(NC(=O)c1ccc3ccccc3c1)C2 (stereo not given); 0.44

Query block: Which measured deltaT value corresponds to O=C(NC1CC2CCC(C1)N2Cc1cccc(Cl)c1)c1ccc2ccccc2c1 (stereo not given) ?
Result block: 1

---

target: D(2) dopamine receptor (Rattus norvegicus, UniProt P61169); test: Displacement of [3H] Spiperone from rat striatum dopamine D2 receptor measured after 30 mins by liquid scintillation counter method
Sequence (P61169 whole entry): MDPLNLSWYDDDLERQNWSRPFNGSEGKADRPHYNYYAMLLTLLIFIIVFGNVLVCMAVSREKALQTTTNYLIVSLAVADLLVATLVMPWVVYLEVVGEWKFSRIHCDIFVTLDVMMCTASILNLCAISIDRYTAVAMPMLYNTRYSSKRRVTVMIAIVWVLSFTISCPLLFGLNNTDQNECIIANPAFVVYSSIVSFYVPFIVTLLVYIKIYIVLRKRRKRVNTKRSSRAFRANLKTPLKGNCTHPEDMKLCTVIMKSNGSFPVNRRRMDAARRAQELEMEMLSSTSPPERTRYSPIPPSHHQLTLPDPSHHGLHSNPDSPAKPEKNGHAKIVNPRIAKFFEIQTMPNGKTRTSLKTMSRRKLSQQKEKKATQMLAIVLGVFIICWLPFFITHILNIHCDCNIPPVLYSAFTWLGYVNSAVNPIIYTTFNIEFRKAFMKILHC
Reported log10 of Ki values for the following compounds.
Could you please treat all values as log10 of Ki in µM?

Examples from the recorded data:
O=C(NC1CC2CCC(C1)N2Cc1ccccc1C(F)(F)F)c1ccc2ccccc2c1 (stereo not given); -0.27
O=C(NC1CC2CCC(C1)N2Cc1ccccc1Br)c1ccc2ccccc2c1 (stereo not given); -1.64
COc1cccc(CN2C3CCC2CC(NC(=O)c2ccc4ccccc4c2)C3)c1 (stereo not given); -1.59
O=C(NC1CC2CCC(C1)N2Cc1ccc(Cl)cc1)c1ccc2ccccc2c1 (stereo not given); -3.40
Cc1cccc(CN2C3CCC2CC(NC(=O)c2ccc4ccccc4c2)C3)c1 (stereo not given); -2.48
O=C(NC1CC2CCC(C1)N2Cc1ccccn1)c1ccc2ccccc2c1 (stereo not given); 0.34

Query block: Which measured log10 of Ki value corresponds to O=C(NC1CC2CCC(C1)N2Cc1cccnc1)c1ccc2ccccc2c1 (stereo not given) ?
Result block: 0.38

Query block: Which measured log10 of Ki value corresponds to O=C(NC1CC2CCC(C1)N2Cc1cccc(C(F)(F)F)c1)c1ccc2ccccc2c1 (stereo not given) ?
Result block: -0.66

Query block: Which measured log10 of Ki value corresponds to Cc1ccccc1CN1C2CCC1CC(NC(=O)c1ccc3ccccc3c1)C2 (stereo not given) ?
Result block: -0.93

---

tested on: Mus musculus; experiment: Effect on 8-OH-DPAT-induced hypothermia in Swiss albino mouse assessed as change in rectal body temperature at 10 mg/kg, ip pretreated with compound for 45 mins followed by 8-OH-DPAT challenge and measured after 60 min by thermometer (reference value: -0.66 to -0.5 degreeC); type: functional, organism-based; conditions: time 105.0 min
Rule: deltaT below -0.7 °C gives Satisfied. Equal to or above -0.7 °C gives Not satisfied.

Illustrative cases are given below, each with its answer.
Cc1cccc(CN2C3CCC2CC(NC(=O)c2ccc4ccccc4c2)C3)c1 (stereo not drawn); Not satisfied
COc1cccc(CN2C3CCC2CC(NC(=O)c2ccc4ccccc4c2)C3)c1 (stereo not drawn); Not satisfied

Query block: Does the reported deltaT of O=C(NC1CC2CCC(C1)N2Cc1cccc(F)c1)c1ccc2ccccc2c1 (stereo not drawn) stay below -0.7 °C?
Result block: Satisfied

Query block: Does the reported deltaT of O=C(NC1CC2CCC(C1)N2Cc1ccccc1Cl)c1ccc2ccccc2c1 (stereo not drawn) stay below -0.7 °C?
Result block: Not satisfied

Query block: Does the reported deltaT of O=C(NC1CC2CCC(C1)N2Cc1cccc(Cl)c1)c1ccc2ccccc2c1 (stereo not drawn) stay below -0.7 °C?
Result block: Not satisfied

Query block: Does the reported deltaT of COc1ccccc1CN1C2CCC1CC(NC(=O)c1ccc3ccccc3c1)C2 (stereo not drawn) stay below -0.7 °C?
Result block: Satisfied

Query block: Does the reported deltaT of O=C(NC1CC2CCC(C1)N2Cc1ccc(F)cc1)c1ccc2ccccc2c1 (stereo not drawn) stay below -0.7 °C?
Result block: Satisfied

---

experiment: Effect on body temperature in Swiss Albino mouse assessed as rectal body temperature at 20 mg/kg, ip measured after 60 mins by thermometer (reference value: 0.33 to 0.61 degreeC); type: ADME, organism-based; conditions: in vivo, 1 h
reportedProperty: deltaT (°C)
The response must be a number in °C with no trailing unit.

Examples from the recorded data:
O=C(NC1CC2CCC(C1)N2Cc1cccc(Cl)c1)c1ccc2ccccc2c1 (stereo not drawn); 0.41
O=C(NC1CC2CCC(C1)N2Cc1ccc(F)cc1)c1ccc2ccccc2c1 (stereo not drawn); 0.46
Cc1cccc(CN2C3CCC2CC(NC(=O)c2ccc4ccccc4c2)C3)c1 (stereo not drawn); 0.47
O=C(NC1CC2CCC(C1)N2Cc1cccc(Br)c1)c1ccc2ccccc2c1 (stereo not drawn); 0.49
COc1ccccc1CN1C2CCC1CC(NC(=O)c1ccc3ccccc3c1)C2 (stereo not drawn); 0.01
COc1cccc(CN2C3CCC2CC(NC(=O)c2ccc4ccccc4c2)C3)c1 (stereo not drawn); 0.57
O=C(NC1CC2CCC(C1)N2Cc1ccccc1Cl)c1ccc2ccccc2c1 (stereo not drawn); 0.44

Query block: Which measured deltaT value corresponds to O=C(NC1CC2CCC(C1)N2Cc1cccc(F)c1)c1ccc2ccccc2c1 (stereo not drawn) ?
Result block: 0.43

---

experiment: Effect on body temperature in Swiss Albino mouse assessed as rectal body temperature at 10 mg/kg, ip measured after 120 mins by thermometer (reference value: 0.15 to 1.11 degreeC); type: organism-based; conditions: in vivo, 2 h
reportedProperty: deltaT (°C)
The response must be a number in °C with no trailing unit.

Query block: Which measured deltaT value corresponds to O=C(NC1CC2CCC(C1)N2Cc1cccc(Br)c1)c1ccc2ccccc2c1 (stereo not drawn) ?
Result block: 1.14

Query block: Which measured deltaT value corresponds to COc1cccc(CN2C3CCC2CC(NC(=O)c2ccc4ccccc4c2)C3)c1 (stereo not drawn) ?
Result block: 0.7

---

experiment: Effect on body temperature in Swiss Albino mouse assessed as rectal body temperature at 20 mg/kg, ip measured after 30 mins by thermometer (reference value: 0.16 to 0.33 degreeC); type: ADME, organism-based; settings: in vivo, 0.5 h
reportedProperty: deltaT (°C)
The response must be a number in °C with no trailing unit.

Examples from the recorded data:
O=C(NC1CC2CCC(C1)N2Cc1ccccc1Cl)c1ccc2ccccc2c1 (stereo not given); -0.36
O=C(NC1CC2CCC(C1)N2Cc1ccc(F)cc1)c1ccc2ccccc2c1 (stereo not given); -0.33

Query block: Which measured deltaT value corresponds to O=C(NC1CC2CCC(C1)N2Cc1cccc(Cl)c1)c1ccc2ccccc2c1 (stereo not given) ?
Result block: -0.38

Query block: Which measured deltaT value corresponds to Cc1cccc(CN2C3CCC2CC(NC(=O)c2ccc4ccccc4c2)C3)c1 (stereo not given) ?
Result block: 0.04

---

Reported deltaT values for the following compounds.
test: Effect on body temperature in Swiss Albino mouse assessed as rectal body temperature at 10 mg/kg, ip measured after 60 mins by thermometer (reference value: 0.33 to 0.61 degreeC); assay type: ADME, organism-based; conditions: in vivo, 1 h
The response must be a number in °C with no trailing unit.

Examples from the recorded data:
COc1cccc(CN2C3CCC2CC(NC(=O)c2ccc4ccccc4c2)C3)c1 (stereo not drawn); 0.03
O=C(NC1CC2CCC(C1)N2Cc1cccc(Br)c1)c1ccc2ccccc2c1 (stereo not drawn); 0.76

Query block: Which measured deltaT value corresponds to O=C(NC1CC2CCC(C1)N2Cc1ccccc1Cl)c1ccc2ccccc2c1 (stereo not drawn) ?
Result block: 0.96

---

test system: Mus musculus; experiment: Effect on 8-OH-DPAT-induced hypothermia in Swiss albino mouse assessed as change in rectal body temperature at 10 mg/kg, ip pretreated with compound for 45 mins followed by 8-OH-DPAT challenge and measured after 30 min by thermometer (reference value: -1.36 to -1.12 degreeC); format: functional, organism-based; conditions: time 75.0 min
Rule: deltaT below -1 °C gives 1. Equal to or above -1 °C gives 0.

Illustrative cases are given below, each with its answer.
COc1ccccc1CN1C2CCC1CC(NC(=O)c1ccc3ccccc3c1)C2 (stereo not given); 1
Cc1cccc(CN2C3CCC2CC(NC(=O)c2ccc4ccccc4c2)C3)c1 (stereo not given); 0
O=C(NC1CC2CCC(C1)N2Cc1cccc(F)c1)c1ccc2ccccc2c1 (stereo not given); 1
COc1cccc(CN2C3CCC2CC(NC(=O)c2ccc4ccccc4c2)C3)c1 (stereo not given); 1

# ---- query compound ----
Query block: Does the reported deltaT of O=C(NC1CC2CCC(C1)N2Cc1cccc(Cl)c1)c1ccc2ccccc2c1 (stereo not given) stay below -1 °C?
Result block: 1
